Origin of measurements: patent US9682955B2

- Study System: Human CB2R (Cannabanoid receptor 2) (Homo sapiens (Human), UniProt P34972)
- Sequence (P34972 whole entry): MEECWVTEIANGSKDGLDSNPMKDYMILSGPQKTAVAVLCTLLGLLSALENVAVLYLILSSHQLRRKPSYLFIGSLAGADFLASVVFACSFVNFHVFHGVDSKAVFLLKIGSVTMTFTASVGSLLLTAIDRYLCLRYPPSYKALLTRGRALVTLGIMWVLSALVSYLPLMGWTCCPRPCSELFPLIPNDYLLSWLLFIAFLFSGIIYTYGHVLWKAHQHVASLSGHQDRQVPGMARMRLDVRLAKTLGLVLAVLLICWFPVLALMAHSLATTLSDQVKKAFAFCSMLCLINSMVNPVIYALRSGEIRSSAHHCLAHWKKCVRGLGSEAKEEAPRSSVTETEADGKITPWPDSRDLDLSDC
- Experiment Summary: CB-2 in vitro cAMP assay (HTRF)
- Condition Description: mean where tested more than once
Measured Metric: EC50 (µM)

Note to self: EC50 recorded for C[C@@H](Nc1ncnc2ccc(C(c3ccc(Cl)cc3)c3ccc(Cl)cc3)cc12)c1cccc(C(F)(F)F)c1 (single isomer, unassigned) was 8.2

A. O=C(O)c1csc(CN2CCC(Nc3ncnc4ccc(C(c5ccc(Cl)cc5)c5ccc(Cl)cc5)cc34)CC2)c1
B. COc1cc(S(=O)(=O)N2CCC(Nc3ncnc4ccc(C(c5ccc(Cl)cc5)c5ccc(Cl)cc5)cc34)CC2)ccc1C(=O)O
Consider entries A and B . Which has the numerically lower EC50? // output: label of the selected item
B
(B: 0.28 µM, A: 6.26 µM)

1. CC(=O)Nc1nc(NC2CCN(S(=O)(=O)C(F)(F)F)CC2)c2cc(C(c3ccc(Cl)cc3)c3ccc(Cl)cc3)ccc2n1
2. Fc1ccc(C(c2ccc(F)cc2)c2ccc3ncnc(NC4CCN(c5ccccc5)CC4)c3c2)cc1
3. O=C(O)c1cccc(S(=O)(=O)N2CCC(Nc3ncnc4ccc(C(c5ccc(Cl)cc5)c5ccc(Cl)cc5)cc34)CC2)c1
4. O=S(=O)(N1CCCC1)N1CCC(Nc2ncnc3ccc(C(c4ccc(Cl)cc4)c4ccc(Cl)cc4)cc23)CC1
List by increasing EC50. Provide the labels, sequenced as the question asks.
2, 4, 3, 1

----------
- Experiment Summary: Mouse Fast PK/BBB (plasma and brain concentration)
- Assay type: in vivo, Male C57bl/6j mice
- Condition Description: male, C57bl/6j, plasma, PO 30 mg/kg, 1 hr, N=3, read-out: PLASMA Mean Conc. ± Std. Dev
Measured Metric: concentration at 1 h (ng/mL)

A. N=C(N)c1ccc(S(=O)(=O)N2CCC(Nc3ncnc4ccc(C(c5ccc(Cl)cc5)c5ccc(Cl)cc5)cc34)CC2)cc1
B. OCC(CO)(CO)COc1nc(NCc2cccc(C(F)(F)F)c2)c2cc(C(c3ccc(Cl)cc3)c3ccc(Cl)cc3)ccc2n1
Consider entries A and B . Which has the numerically lower concentration at 1 h? // output: label of the selected item
A

----------
- Study System: Human CB1R (Cannabanoid receptor 1) (Homo sapiens (Human))
- Sequence (P21554 whole entry): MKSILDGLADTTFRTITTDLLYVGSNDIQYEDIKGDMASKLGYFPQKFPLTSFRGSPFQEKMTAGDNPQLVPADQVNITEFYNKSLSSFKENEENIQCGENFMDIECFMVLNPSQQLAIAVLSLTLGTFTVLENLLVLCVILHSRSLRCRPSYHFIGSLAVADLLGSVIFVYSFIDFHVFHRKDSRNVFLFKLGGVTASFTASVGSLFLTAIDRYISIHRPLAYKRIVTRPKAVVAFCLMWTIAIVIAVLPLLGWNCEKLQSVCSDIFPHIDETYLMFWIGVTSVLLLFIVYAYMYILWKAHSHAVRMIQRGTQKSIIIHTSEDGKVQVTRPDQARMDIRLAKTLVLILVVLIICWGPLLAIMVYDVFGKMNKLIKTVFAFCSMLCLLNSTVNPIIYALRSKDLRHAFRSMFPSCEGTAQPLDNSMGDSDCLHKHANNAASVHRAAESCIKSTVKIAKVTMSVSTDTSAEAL
- Experiment Summary: CB-1 in vitro cAMP assay (HTRF)
- Condition Description: mean where tested more than once
- Text: CB1 and CB2 receptors are Gi-coupled GPCR. Activation of CB1 and CB2 receptors results in a decrease in cAMP production. An inverse agonist of the CB1 or CB2 receptor results in the opposite effect, an increase of cAMP production. The principle of this assay is based on HTRF® technology (Homogeneous Time-Resolved Fluorescence). […] The tracer binding is quantified by a Mab anti-cAMP labeled with Eu3+TBP-NHS Cryptate (supplied as part of the assay kit). […]
Measured Metric: EC50 (nM)

I. COc1ccc(C(c2ccc(Cl)cc2)c2ccc3ncnc(NC4CCN(c5ccccc5)CC4)c3c2)cc1 (stereo not shown) [Compound #58]
II. CNc1nc(NC2CCN(S(=O)(=O)C(F)(F)F)CC2)c2cc(C(c3ccc(Cl)cc3)c3ccc(Cl)cc3)ccc2n1 [Compound #113]
Consider entries I and II . Which has the numerically lower EC50? // output: label of the selected item
I

I. CC(Nc1ncnc2ccc(C(c3ccc(Cl)cc3)c3ccc(Cl)cc3)cc12)c1ccc(C(F)(F)F)cc1 (stereo not shown) [compound 116]
II. O=S(=O)(CCO)N1CCC(Nc2ncnc3ccc(C(c4ccc(Cl)cc4)c4ccc(Cl)cc4)cc23)CC1 [Compound #78]
Please state the entry with greater EC50 among I and II . // output: label of the selected item
II
(II: 16 nM, I: 8 nM)

----------
- Study System: Human CB2R (Cannabanoid receptor 2) (Homo sapiens (Human), UniProt P34972)
- Experiment Summary: CB-2 in vitro cAMP assay (HTRF)
- Type: cell-based
- Condition Description: mean where tested more than once
- Source text: CB1 and CB2 receptors are Gi-coupled GPCR. Activation of CB1 and CB2 receptors results in a decrease in cAMP production. An inverse agonist of the CB1 or CB2 receptor results in the opposite effect, an increase of cAMP production. The principle of this assay is based on HTRF® technology (Homogeneous Time-Resolved Fluorescence). […] The tracer binding is quantified by a Mab anti-cAMP labeled with Eu3+TBP-NHS Cryptate (supplied as part of the assay kit). […]
Measured Metric: EC50 (µM)

Note to self: EC50 recorded for O=C(O)c1cccc(CCNc2ncnc3ccc(C(c4ccc(Cl)cc4)c4ccc(Cl)cc4)cc23)c1 [Compound #2] was 1.05

Note to self: EC50 recorded for NC(=O)c1ccc(CNc2ncnc3ccc(C(c4ccc(Cl)cc4)c4ccc(Cl)cc4)cc23)cc1 [compound 56] was 9.1

a. O=S(=O)(N1CCC(Nc2ncnc3ccc(C(c4ccc(Cl)cc4)c4nccs4)cc23)CC1)C(F)(F)F (stereo not shown) [Compound #146]
b. O=C(O)c1ccc(CN2CCC(Nc3ncnc4ccc(C(c5ccc(Cl)cc5)c5ccc(Cl)cc5)cc34)C2)cc1 (stereo not shown) [Compound #14]
c. Clc1ccc(C(c2ccc(Cl)cc2)c2ccc3ncnc(NC4CCN(c5ccccn5)CC4)c3c2)cc1 [Compound #130]
Please list these compounds in decreasing order of EC50. Provide the labels, sequenced as the question asks.
b, a, c

----------
- Study System: UniProt:P21554
- Experiment Summary: CB-1 in vitro cAMP assay (HTRF)
- Condition Description: mean where tested more than once
Measured Metric: EC50 (nM)

Example results:
Note to self: EC50 recorded for Oc1ccc(N2CCC(Nc3ncnc4ccc(C(c5ccc(Cl)cc5)c5ccc(Cl)cc5)cc34)CC2)cc1 [Compound #32] was 15

Note to self: EC50 recorded for O=C(O)c1cccc(CCN2CCC(Nc3ncnc4ccc(C(c5ccc(Cl)cc5)c5ccc(Cl)cc5)cc34)CC2)c1 [Compound #13] was 1240

Note to self: EC50 recorded for O=S(=O)(N1CCC(Nc2nc(C3CC3)nc3ccc(C(c4ccc(Cl)cc4)c4ccc(Cl)cc4)cc23)CC1)C(F)(F)F [Compound #108] was 8

Note to self: EC50 recorded for N#Cc1ccc(C(c2ccc(Cl)cc2)c2ccc3ncnc(NC4CCN(S(=O)(=O)C(F)(F)F)CC4)c3c2)cc1 (stereo not shown) [Compound #19] was 6

Note to self: EC50 recorded for Fc1cccc(CNc2ncnc3ccc(C(c4ccc(Cl)cc4)c4ccc(Cl)cc4)cc23)c1 [compound 63] was 10

a. O=S(=O)(c1ccc(O)cc1)N1CCC(Nc2ncnc3ccc(C(c4ccc(Cl)cc4)c4ccc(Cl)cc4)cc23)CC1 [Compound #8]
b. NC(=O)c1cccc(CN2CCC(Nc3ncnc4ccc(C(c5ccc(Cl)cc5)c5ccc(Cl)cc5)cc34)CC2)c1 [Compound #36]
Please state the entry with greater EC50 among a and b . // output: label of the selected item
b
(b: 14 nM, a: 8 nM)

----------
- Study System: Human CB2R (Cannabanoid receptor 2) (Homo sapiens (Human))
- Experiment Summary: CB-2 in vitro cAMP assay (HTRF)
- Condition Description: mean where tested more than once
Measured Metric: EC50 (µM)

a. O=C(O)c1cccc(N2CCC(Nc3ncnc4ccc(C(c5ccc(Cl)cc5)c5ccc(Cl)cc5)cc34)CC2)c1
b. FC(F)(F)c1ccc(C2(Nc3ncnc4ccc(C(c5ccc(Cl)cc5)c5ccc(Cl)cc5)cc34)CC2)cc1
c. O=S(=O)(N1CCC(Nc2ncnc3ccc(C(c4ccc(Cl)cc4)c4ccc(Cl)cc4)cc23)CC1)C(F)(F)F
Parameters: sort_by = EC50; order = desc; input = items above. Provide the labels, sequenced as the question asks.
b, a, c
(b: 5.94 µM, a: 3.16 µM, c: 0.801 µM)

----------
- Study System: Human CB1R (Cannabanoid receptor 1) (Homo sapiens (Human))
- Experiment Summary: CB-1 in vitro cAMP assay (HTRF)
- Format: cell-based
- Condition Description: mean where tested more than once
pEC50: −log10 of the molar value.
Measured Metric: pEC50

Example results:
Note to self: pEC50 recorded for O=S(=O)(N1CCC(Nc2nc(O)nc3ccc(C(c4ccc(Cl)cc4)c4ccc(Cl)cc4)cc23)CC1)C(F)(F)F was 7.49

Note to self: pEC50 recorded for FC(F)(F)c1cncc(CNc2ncnc3ccc(C(c4ccc(Cl)cc4)c4ccc(Cl)cc4)cc23)c1 was 7.60

Note to self: pEC50 recorded for CS(=O)(=O)N1CCC(Nc2ncnc3ccc(C(c4ccc(Cl)cc4)c4ccc(Cl)cc4)cc23)CC1 was 7.62

P. Oc1cccc(CN2CCC(Nc3ncnc4ccc(C(c5ccc(Cl)cc5)c5ccc(Cl)cc5)cc34)CC2)c1
Q. Clc1ccc(C(c2ccc(Cl)cc2)c2ccc3ncnc(NC4CCN(c5ncccn5)CC4)c3c2)cc1
R. COC(=O)Cc1ccc(N2CCC(Nc3ncnc4ccc(C(c5ccc(Cl)cc5)c5ccc(Cl)cc5)cc34)CC2)cc1
S. O=C(O)c1ccc(CN2CCC(Nc3ncnc4ccc(C(c5ccc(Cl)cc5)c5ccc(Cl)cc5)cc34)CC2)s1
List by increasing pEC50. Provide the labels, sequenced as the question asks.
S, P, R, Q
(S: 6.75, P: 7.16, R: 8.40, Q: 8.70)

a. FC(F)(F)c1ccc(Nc2ncnc3ccc(C(c4ccc(Cl)cc4)c4ccc(Cl)cc4)cc23)cc1Cl
b. Clc1ccc(C(c2ccc(Cl)cc2)c2ccc3ncnc(NC4CCN(CCc5ccccc5)CC4)c3c2)cc1
Please state the entry with greater pEC50 among a and b . // output: label of the selected item
a

I. FC(F)(F)c1ccc(Nc2ncnc3ccc(C(c4ccc(Cl)cc4)c4nccs4)cc23)cc1 (stereo not shown)
II. O=C(O)c1cccc(CCNc2ncnc3ccc(C(c4ccc(Cl)cc4)c4ccc(Cl)cc4)cc23)c1
III. O=C(O)c1cccc(CN2CCC(Nc3ncnc4ccc(C(c5ccc(Cl)cc5)c5ccc(Cl)cc5)cc34)C2)c1 (stereo not shown)
IV. O=S(=O)(N1CCC(CNc2ncnc3ccc(C(c4ccc(Cl)cc4)c4ccc(Cl)cc4)cc23)CC1)C(F)(F)F
List by increasing pEC50. Provide the labels, sequenced as the question asks.
III, II, I, IV
(III: 5.40, II: 6.49, I: 6.79, IV: 8.10)
